%Inh values for the compounds below.
Test system: ADCK3;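 note: KINOMEscan kinase panel screen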
Construct: gene CABC1
particulars: concentration: 1 μM, replicates: in singlicate; n = 1
endpoint name: %Inh (%)

> print(dat)
                            smiles.notation  tested.system  unit.tag  measured.value
1  O=C(Nc1n[nH]c2nc(-c3nccs3)c(Br)cc12)C1CC1          ADCK3         %              15
2  CC(C)(C)c1ccc(C(=O)Nc2cn3cc(-c4cccnc4)ccc3n2)cc1          ADCK3         %              19
3  O=C(Nc1n[nH]c2nc(-c3nccs3)c(Br)cc12)C1CCCC1          ADCK3         %               0
4       Nc1nc(-c2nccs2)c(-c2ccnc3ccccc23)s1          ADCK3         %               0
5    Fc1cccc(COc2nnc(-c3ccc4c(c3)CCO4)o2)c1          ADCK3         %               0
6  COc1cccc(-c2cc(-c3c[nH]nc3-c3ccccn3)ccn2)c1          ADCK3         %              25
7  COc1ccc2nc(-c3cccc(C)n3)nc(Nc3ccncc3)c2c1          ADCK3         %              25
8     Cc1cccc(-c2cc(Nc3ccncc3)c3ccccc3n2)n1          ADCK3         %               0
9  Cc1ccc(C(=O)Nc2ccc(Nc3ccnc4cc(-c5ccccn5)ccc34)cc2O)cc1.Cl          ADCK3         %               0
